# Tested on: Noggin (protein binding on small-molecule microarray)
# method: Noggin binders on small-molecule microarray, primary screen, biochemical, 635/667 nm fluorescence (AID 1095);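 further: score merges 667 nm feature fluorescence with signal to noise over triplicate slides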
# conditionContext: 635 nm fluorescence, higher = more signal
Property: composite z-score; scope: individual compounds
measuredAttribute: composite z-score

1) COc1ccc(O[C@H]2C=C[C@@H](c3ccccc3)O[C@@H]2COC(=O)CCC(C)=NO[C@@H]2O[C@H](COC(C)=O)[C@@H](OC(C)=O)[C@H](OC(C)=O)[C@H]2OC(C)=O)cc1 ... 0.749
2) CCOC(=O)[C@H](Cc1ccccc1)NC(=O)CCC1CC(OC(=O)NCCc2ccc(F)cc2)CC2(CCCC(COC(=O)NCCCN3CCCC3=O)O2)O1 (stereo partly drawn) ... 0.373
3) CC(C)(C)N1C(=O)[C@H]2[C@H]3[C@H](O)[C@H](O)CC(=O)[C@H]3CC[C@H]2C1=O ... 0.344

----------
# assaySystem: E3 ubiquitin-protein ligase XIAP (Homo sapiens)
# method: XIAP binders, primary screen, biophysical, small-molecule microarray, fluorescence 635 nm (AID 1181);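 further: score merges 667 nm emission and signal to noise over triplicate slides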
# conditionContext: small-molecule microarray binding, higher = more signal
Entries and their composite z-score values follow.
measuredAttribute: composite z-score

1) CO[C@H]1COC(=O)CC=C[C@@H](C)[C@H](NS(=O)(=O)c2ccc(C)cc2)COC(=O)CCC[C@@H]1C ... 0.0797
2) CCOC(=O)CCN1C(=O)[C@H]2[C@H]3[C@H](O)[C@H](O)CC(=NOCC(C)C)[C@H]3CC[C@H]2C1=O ... -0.22
3) COc1ccc(C#C[C@@H]2C=C[C@H](OC(C)=O)[C@@H](COC(C)=O)O2)cc1 ... -0.0801
4) CCOC(=O)[C@H](CC(C)C)NC(=O)CCC1CC(OC(=O)NCc2cccc3ccccc23)CC2(CCCC(COC(=O)NCCOc3ccccc3)O2)O1 (stereo partly specified) ... -0.142
5) CCN1C(=O)[C@H]2[C@H]3[C@H](O)[C@H](O)CC(=O)[C@@H]3CC[C@H]2C1=O ... 0.112
6) COc1ccc(O[C@H]2C=C[C@@H](c3ccccc3)O[C@@H]2CON=C2[C@H]3CCn4c(=O)n(-c5ccccc5)c(=O)n4[C@H]3[C@H](O)[C@@H]3O[C@H]23)cc1 ... -0.403

----------
# method: modulators of HCV replicon luciferase signal, primary screen, HCV replication inhibitor project, Huh7 cells, luciferase reporter (AID 1109);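 further: huh7 hepatoma cells harbouring a luciferase neomycin HCV replicon reporter; luciferase luminescence as measure of HCV replicon replication; test concentration not given here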
# conditionContext: 48 h, higher = more signal
Tick yes (1) if z-score is -0.1 or greater. Tick no (0) if z-score is less than -0.1.

1. C=Cc1ccc([C@H]2N[C@H](C(=O)O)CC[C@@H]2C)cc1 ... no (0)
2. COc1ccc(O[C@H]2C=C[C@@H](c3ccccc3)O[C@@H]2CON=C(C)CCC(=O)OC[C@H]2O[C@H](c3ccccc3)C=C[C@@H]2Oc2ccc(OC)cc2)cc1 ... no (0)
3. COC(=O)[C@H](C)NC(=O)CCC1CC(OC(=O)NCc2ccc3c(c2)OCO3)CC2(CCCC(COC(=O)NCc3cccc(C(F)(F)F)c3)O2)O1 (some centres not stated) ... no (0)
4. Cc1cc2c(nc1C)CCCN2CC(O)CN1CCCc2nc(C)c(C)cc21 ... no (0)
5. CO[C@H]1COC(=O)CC=C[C@H](C)COC(=O)[C@@H](C)NC(=O)CC=C[C@@H]1C ... no (0)
6. COC(=O)CC=C[C@@H](C)[C@@H]1C=C[C@H](O)[C@@H](CO)O1 ... yes (1)
7. C=COC[C@@H]1CN2[C@@H](CC[C@@H](C)[C@@H]2c2ccc(Br)cc2)C(=O)O1 ... yes (1)
8. COC(=O)CC=C[C@@H](C)[C@@H](C=NO[C@H](C)c1cn([C@@H]2COC[C@H]2O)nn1)NS(=O)(=O)c1ccc(C)cc1 ... no (0)
9. CCOC(=O)[C@H](CC(C)C)NC(=O)CCC1CC(OC(=O)NCc2cccc3ccccc23)CC2(CCCC(COC(=O)NCC3CCCCC3)O2)O1 (some centres not stated) ... no (0)
10. CC(CCN1CCCCc2nc(C)c(C)cc21)=NOC[C@@H](O)COCc1ccco1 ... yes (1)
11. CC(=O)OC[C@H]1O[C@H](CCON=C2[C@H]3CCn4c(=O)n(-c5ccccc5)c(=O)n4[C@H]3[C@H](O)[C@@H]3O[C@H]23)C=C[C@@H]1OC(C)=O ... no (0)
12. CC(=O)Nc1ccc([C@@H]2N[C@H](C(=O)O)CC[C@H]2C)cc1 ... yes (1)
13. C[C@@H](c1ccccc1)N1C(=O)[C@H]2[C@H]3[C@H](O)[C@H](O)CC(=NO[C@@H]4O[C@H](CO)[C@@H](O)[C@H](O)[C@H]4O)[C@@H]3CC[C@H]2C1=O ... no (0)
14. O=C(NN=C1C[C@@H](O)[C@@H](O)[C@@H]2[C@@H]3C(=O)N(C4CCCCC4)C(=O)[C@@H]3CC[C@H]12)OCc1ccccc1 ... no (0)
15. COc1cc(O)c(C(=O)C=Cc2ccc3c(c2)OCO3)c(OC)c1 ... no (0)
16. COC(=O)[C@@H]1CC[C@H](C)[C@@H](c2ccc(C)cc2)N1C(=O)c1ccc(C=NO[C@H](C)c2cn([C@H](CO)Cc3ccccc3)nn2)cc1 ... no (0)
17. CO[C@@H]1COC(=O)CC=C[C@@H](C)[C@H](OC)COC(=O)[C@@H](C)COC(=O)CC=C[C@H]1C ... yes (1)
18. COc1ccc(COC(=O)NN=C2C[C@@H](O)[C@@H](O)[C@@H]3[C@@H]4C(=O)N(c5cccc(Oc6ccccc6)c5)C(=O)[C@@H]4CC[C@@H]23)cc1 ... no (0)
19. COc1ccc(O[C@H]2C=C[C@@H](c3ccccc3)O[C@@H]2COC(=O)CCC(C)=NOC(C)CN2CCCc3nc(C)c(C)cc32)cc1 (some centres not stated) ... no (0)
20. CCOC(=O)[C@H](CC(C)C)NC(=O)CCC1CC(OC(=O)NCCc2ccc(F)cc2)CC2(CCCC(COC(=O)NCC3CCCCC3)O2)O1 (some centres not stated) ... no (0)
21. O=C1C[C@@H](O)[C@@H](O)[C@@H]2[C@@H]3C(=O)N(c4cccc(Oc5ccccc5)c4)C(=O)[C@@H]3CC[C@H]12 ... yes (1)

----------
# method: binders of probe aFGF2 on microarray, primary screen, stem cell growth factor project, biochemical, small-molecule microarray, fluorescence 635/667 (AID 1067);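 further: measures binding of biotinylated aFGF2 protein to printed compounds on slides; z-score merges feature fluorescence and signal-to-noise across triplicate slides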
# conditionContext: higher = more signal
measuredAttribute: composite z-score

1) COc1cccc([C@H]2Oc3ccc(OC)cc3C(=NOC[C@@H](C)[C@H](OCc3ccccc3)C(C)C)[C@@H]2O)c1 ... -0.004
2) COC(=O)[C@@H]1CC[C@H](C)[C@@H](c2ccc(C)cc2)N1C(=O)c1ccc(C=NO[C@H](C)c2cn([C@H](CO)Cc3ccccc3)nn2)cc1 ... -0.0563
3) O=C1[C@H]2[C@H]3[C@H](O)[C@H](O)CC(=NOCc4ccccc4)[C@@H]3CC[C@H]2C(=O)N1C[C@@H]1CCCO1 ... -0.116
4) CCOC(=O)[C@H](CC(C)C)NC(=O)CCC1CC(OC(=O)NCc2ccc3c(c2)OCO3)CC2(CCCC(COC(=O)NCCCN3CCCC3=O)O2)O1 (some centres undefined) ... -0.087

----------
Documented z-score across a set of compounds
# method: FRG1 promoter luciferase signal modulators, primary screen, FRG1 inhibition for FSHD, cell-based, C2C12 myotubes, firefly/Renilla luciferase, luminescence (AID 1084)
# conditionContext: higher = more signal, called active from +8 up or from −8 down
measuredAttribute: z-score

1) CCOC(=O)NN=C1C[C@@H](O)[C@@H](O)[C@@H]2[C@@H]3C(=O)N(Cc4ccc5c(c4)OCO5)C(=O)[C@@H]3CC[C@H]12 ... 0.855
2) O=C1OCCC=C1C(O)CCc1ccccc1 (stereo unspecified) ... 0.667
3) CC(C)=CCCC(C)=CCON=C1C[C@@H](O)[C@@H](O)[C@@H]2[C@@H]3C(=O)N(c4ccc(F)cc4F)C(=O)[C@@H]3CC[C@@H]12 ... 0.656
4) Cc1ccc(S(=O)(=O)N[C@H]2COC(=O)CC=C[C@@H](C)COC(=O)CC=C[C@@H]2C)cc1 ... 0.999
5) C#CCCCON=C1C[C@@H](O)[C@@H](O)[C@@H]2[C@@H]3C(=O)N(CC)C(=O)[C@@H]3CC[C@@H]12 ... -0.0351
6) COC(=O)CC=C[C@@H](C)[C@H](OCc1cccc(-c2ccccc2)c1)C1CCCCC1 ... 1.38
7) C[C@@H]1NC(=O)[C@@H](C)COC(=O)[C@H](C)NC(=O)[C@@H](C)COC1=O ... -3.49
8) COC(=O)[C@H](C)NC(=O)CCC1CC(OC(=O)NCc2cccc3ccccc23)CC2(CCCC(COC(=O)NCC(c3ccccc3)c3ccccc3)O2)O1 (stereo partly specified) ... 2.44
9) CO[C@H]1COC(=O)[C@@H](C)COC(=O)[C@H](C)NC(=O)CC=C[C@H]1C ... -0.53
10) C=CC[C@@H]1C=C[C@H](ON=C(C)CCC(=O)OC[C@H]2O[C@H](c3ccccc3)C=C[C@@H]2Oc2ccc(OC)cc2)[C@@H](CO)O1 ... 0.403
11) CON=CC[C@@H]1C=C[C@H](OC(C)=O)[C@@H](COC(C)=O)O1 ... 0.41
12) CCOC(=O)NN=C1C[C@@H](O)[C@@H](O)[C@@H]2[C@@H]3C(=O)N(c4cccc(Oc5ccccc5)c4)C(=O)[C@@H]3CC[C@@H]12 ... -0.233
13) CO[C@@H]1COC(=O)CC=C[C@H](C)[C@H](OC)COC(=O)[C@H](C)NC(=O)CC=C[C@H]1C ... -0.175
14) COC(=O)CC=C[C@@H](C)[C@@H](C=NO[C@H](C)c1cn([C@H](CO)Cc2ccccc2)nn1)OC ... 0.0621
15) COC(=O)CC=C[C@@H](C)[C@@H](C=NO[C@H](C)c1cn([C@H](CO)Cc2ccccc2)nn1)NS(=O)(=O)c1ccc(C)cc1 ... -0.25
16) CCOC(=O)[C@H](Cc1ccccc1)NC(=O)CCC1CC(OC(=O)NCCc2ccc(F)cc2)CC2(CCCC(COC(=O)NCCOC)O2)O1 (stereo partly specified) ... 0.753
